These data points were gathered from paper PMC12416549.

# Measurement Target: T1, TNFR1 (Homo sapiens, UniProt P19438)
# T1 chain: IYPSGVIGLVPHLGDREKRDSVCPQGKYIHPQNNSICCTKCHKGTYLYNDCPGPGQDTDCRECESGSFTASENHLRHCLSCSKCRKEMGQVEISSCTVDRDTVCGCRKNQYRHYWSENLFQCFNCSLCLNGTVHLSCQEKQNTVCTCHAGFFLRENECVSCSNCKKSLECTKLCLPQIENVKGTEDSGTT
# Procedure Text: yeast display SC50
Measured Attribute: apparent Kd (screen) (nM)

Example entries begin here.
A98P (designed binder) MTLQELLREEALRRAEAEAFRYALELLAEKFPEQKEYLLDLAEEIESQIRSLSGVDVEDVRKFLDKEWAWVKELLAEHPAELAEVEAARAARLAELRPEVEAKVAA	0.539
L26M (designed binder) MTLQELLREEALRRAEAEAFRYALEMLAEKFPEQKEYLLDLAEEIESQIRSLSGVDVEDVRKFLDKEWAWVKELLAEHPAELAEVEAARAARLAELRAEVEAKVAA	0.593
A69G (designed binder) MTLQELLREEALRRAEAEAFRYALELLAEKFPEQKEYLLDLAEEIESQIRSLSGVDVEDVRKFLDKEWGWVKELLAEHPAELAEVEAARAARLAELRAEVEAKVAA	0.653
R14L (designed binder) MTLQELLREEALRLAEAEAFRYALELLAEKFPEQKEYLLDLAEEIESQIRSLSGVDVEDVRKFLDKEWAWVKELLAEHPAELAEVEAARAARLAELRAEVEAKVAA	0.956
E77Q (designed binder) MTLQELLREEALRRAEAEAFRYALELLAEKFPEQKEYLLDLAEEIESQIRSLSGVDVEDVRKFLDKEWAWVKELLAQHPAELAEVEAARAARLAELRAEVEAKVAA	0.593

[a] S47F (designed binder) MTLQELLREEALRRAEAEAFRYALELLAEKFPEQKEYLLDLAEEIEFQIRSLSGVDVEDVRKFLDKEWAWVKELLAEHPAELAEVEAARAARLAELRAEVEAKVAA
[b] L39C (designed binder) MTLQELLREEALRRAEAEAFRYALELLAEKFPEQKEYLCDLAEEIESQIRSLSGVDVEDVRKFLDKEWAWVKELLAEHPAELAEVEAARAARLAELRAEVEAKVAA
Problem: I'm curious whether a or b has the smaller apparent Kd (screen) number. Which is it? Response format: the label of the selected entry.
Solution: a
(a: 0.49 nM, b: 1.16 nM)
